System: Plutella xylostella
Procedure details: Insecticidal activities to diamondback moth, feeding dipped leaves
Format: in vivo
Measurement parameters: in vivo
Hi there, I'd appreciate the recorded Plutella xylostella Mortality (%) 500 ppm for every entry that follows.
Give bare numbers, in %.

Could I get Plutella xylostella Mortality (%) 500 ppm for every one of these entries?
1. O=[N+]([O-])C(=Cc1ccc(CO)o1)C1=NCCCN1Cc1ccc(Cl)nc1
2. O=[N+]([O-])C(=Cc1ccc[nH]1)C1=NCCN1Cc1ccc(Cl)nc1
3. O=[N+]([O-])C(=Cc1cc(Cl)c(Cl)o1)C1=NCCN1Cc1ccc(Cl)nc1

Outgoing:
1. 100
2. 100
3. 100

###

Hi there, I'd appreciate the recorded Nilaparvata lugens Mortality (%) 500 ppm for every entry that follows.
Tested on: Nilaparvata lugens
Procedure details: Insecticidal activities to plant hopper, spraying method
Format: in vivo
Measurement parameters: in vivo
One number for each entry, in %.

Cc1csc(C=C(C2=NCCN2Cc2ccc(Cl)nc2)[N+](=O)[O-])c1 [Compound 28]	100
C[N+]1=C(C(=Cc2ccc([N+](=O)[O-])s2)[N+](=O)[O-])N(Cc2ccc(Cl)nc2)CC1.[Cl-] [Compound 261]	100
CC(=C(C1=NCCN1C(C)c1ccc(Cl)nc1)[N+](=O)[O-])c1ccc([N+](=O)[O-])o1 (racemic) [Compound 135]	63

Pending compound:
Incoming: Item CC[N+]1=C(C(=Cc2ccoc2)[N+](=O)[O-])N(Cc2ccc(Cl)nc2)CC1.[Cl-] [Compound 286] has what recorded Nilaparvata lugens Mortality (%) 500 ppm?
Outgoing: 100

###

Tested on: Aphis craccivoral
Procedure details: Insecticidal activities to aphids, immersion method
Assay type: in vivo
Measurement parameters: in vivo
Hi there, I'd appreciate the recorded Aphis craccivoral Mortality (%) 500 ppm for every entry that follows.
Report field: quantity (unit follows the number).

Known results for compounds:
N#CC(=Cc1ccsc1)C1=NCCN1Cc1ccc(Cl)nc1	100%
O=[N+]([O-])C(=Cc1ccc(CO)o1)C1=NCCN1Cc1cnc(Cl)s1	100%
O=[N+]([O-])C(=Cc1cc(Cl)co1)C1=NCCN1CC1CCOC1 (stereo not shown)	32%
CC(=C(C1=NCCN1C(C)c1ccc(Cl)nc1)[N+](=O)[O-])c1ccoc1 (racemic)	38%
CC(=C(C1=NCCN1Cc1ccc(Cl)nc1)[N+](=O)[O-])c1ccc([N+](=O)[O-])o1	80%

Could I get Aphis craccivoral Mortality (%) 500 ppm for every one of these entries?
1. CN=C(NCc1ccc(Cl)nc1)C(=Cc1ccc(Cl)s1)[N+](=O)[O-]
2. CN=C(C(=Cc1ccc(Cl)s1)[N+](=O)[O-])N(C)Cc1ccc(Cl)nc1 [Compound 169]

Outgoing:
1: 55%; 2: 76%

Could I get Aphis craccivoral Mortality (%) 500 ppm for every one of these entries?
1. O=[N+]([O-])C(=Cc1ccc(Cl)s1)C1=NCCCN1Cc1ccc(Cl)nc1
2. O=[N+]([O-])C(=Cc1cnc(Cl)s1)C1=NCCN1Cc1ccc(Cl)nc1
3. O=[N+]([O-])C(=Cc1ccc[nH]1)C1=NCCN1Cc1ccc(Cl)nc1
4. CCN(Cc1ccc(Cl)nc1)C(=NC)C(=C(C)c1ccco1)[N+](=O)[O-]
5. C[N+]1=C(C(=Cc2ccc(CO)o2)[N+](=O)[O-])N(Cc2ccc(Cl)nc2)CC1.[Cl-]

Outgoing:
["100%", "100%", "100%", "100%", "100%"]

Could I get Aphis craccivoral Mortality (%) 500 ppm for every one of these entries?
1. CC(=C(C1=NCCN1Cc1ccc(Cl)nc1)[N+](=O)[O-])c1ccc(Br)s1
2. O=[N+]([O-])C(=Cc1cc(Br)cs1)C1=NCCN1Cc1cnc(Cl)s1
3. N#CC(=Cc1ccc([N+](=O)[O-])o1)C1=NCCN1Cc1ccc(Cl)nc1

Outgoing:
75%
100%
100%

Incoming: Item CN=C(C(=Cc1cccs1)[N+](=O)[O-])N(C)Cc1ccc(Cl)nc1 [Compound 236] has what recorded Aphis craccivoral Mortality (%) 500 ppm?
Outgoing: 82%

###

Hi there, I'd appreciate the recorded Nilaparvata lugens Mortality (%) 500 ppm for every entry that follows.
System: Nilaparvata lugens
Procedure details: Insecticidal activities to plant hopper, spraying method
Assay type: in vivo
Measurement parameters: in vivo
Report field: quantity (unit follows the number).

Known results for compounds:
CCN(Cc1ccc(Cl)nc1)C(=NC)C(=C(C)c1ccc[nH]1)[N+](=O)[O-]	100%
C[N+]1=C(C(=Cc2sc(Cl)cc2Cl)[N+](=O)[O-])N(Cc2ccc(Cl)nc2)CC1.[Cl-]	100%

Pending compound:
Incoming: Item `CCN(Cc1ccc(Cl)nc1)C(=NC)C(=Cc1ccc([N+](=O)[O-])o1)[N+](=O)[O-]` has what recorded Nilaparvata lugens Mortality (%) 500 ppm?
Outgoing: 100%

###

Tested on: Plutella xylostella
Procedure details: Insecticidal activities to diamondback moth, feeding dipped leaves
Type: in vivo
Measurement parameters: in vivo
Measured metric: Plutella xylostella Mortality (%) 500 ppm
Numbers only, in %.

Could I get Plutella xylostella Mortality (%) 500 ppm for every one of these entries?
1. O=[N+]([O-])C(=Cc1cc(Br)cs1)C1=NCCN1Cc1cnc(Cl)s1
2. N#CC(=Cc1cc(Br)cs1)C1=NCCN1Cc1ccc(Cl)nc1
3. C[N+]1=C(C(=Cc2sc(Cl)cc2Cl)[N+](=O)[O-])N(Cc2ccc(Cl)nc2)CC1.[Cl-]
4. O=[N+]([O-])C(=Cc1cc(Cl)c(Cl)o1)C1=NCCN1Cc1ccccc1

Outgoing:
100
100
100
24

###

Hi there, I'd appreciate the recorded Aphis craccivoral Mortality (%) 500 ppm for every entry that follows.
System: Aphis craccivoral
Procedure details: Insecticidal activities to aphids, immersion method
Type: in vivo
Measurement parameters: in vivo
Answers are plain numbers, in %.

Known results for compounds:
C[N+]1=C(C(=Cc2ccc[nH]2)[N+](=O)[O-])N(Cc2ccc(Cl)nc2)CC1.[Cl-]	100
O=[N+]([O-])C(=Cc1ccoc1)C1=NCCCN1Cc1ccc(Cl)nc1	100
CC(=C(C1=NCCN1Cc1ccc(Cl)nc1)[N+](=O)[O-])c1ccc(C)o1	92

Could I get Aphis craccivoral Mortality (%) 500 ppm for every one of these entries?
1. CN=C(C(=C(C)c1ccsc1)[N+](=O)[O-])N(C)C(C)c1ccc(Cl)nc1 (stereo not drawn)
2. CCN(Cc1ccc(Cl)nc1)C(=NC)C(=Cc1cccs1)[N+](=O)[O-]
3. C[N+]1=C(C(=Cc2ccsc2)[N+](=O)[O-])N(Cc2cnc(Cl)s2)CC1.[Cl-]
4. CC(=C(C1=NCCN1Cc1ccc(Cl)nc1)[N+](=O)[O-])c1ccsc1
5. C[N+]1=C(C(=Cc2ccco2)[N+](=O)[O-])N(Cc2ccc(Cl)nc2)CC1.[Cl-]
6. C[N+]1=C(C(=Cc2cc(Br)co2)[N+](=O)[O-])N(Cc2ccc(Cl)nc2)CC1.[Cl-]
7. CCN=C(C(=Cc1ccc([N+](=O)[O-])o1)[N+](=O)[O-])N(CC)Cc1ccc(Cl)nc1
8. CN=C(C(=C(C)c1ccc[nH]1)[N+](=O)[O-])N(C)C(C)c1ccc(Cl)nc1 (stereo not drawn)

Outgoing:
89
98
100
89
100
100
95
100

Could I get Aphis craccivoral Mortality (%) 500 ppm for every one of these entries?
1. CC[N+]1=C(C(=Cc2ccsc2)[N+](=O)[O-])N(Cc2ccc(Cl)nc2)CC1.[Cl-]
2. O=[N+]([O-])C(=Cc1oc(Cl)cc1Cl)C1=NCCCN1Cc1ccc(Cl)nc1
3. CN=C(C(=Cc1ccc(Cl)s1)[N+](=O)[O-])N(C)Cc1ccc(Cl)nc1 [Compound 239]
4. CN=C(C(=Cc1ccsc1)[N+](=O)[O-])N(C)Cc1cnc(Cl)s1

Outgoing:
100
100
58
78

###

Hi there, I'd appreciate the recorded Nilaparvata lugens Mortality (%) 500 ppm for every entry that follows.
System: Nilaparvata lugens
Procedure details: Insecticidal activities to plant hopper, spraying method
Type: in vivo
Measurement parameters: in vivo
Report field: quantity (unit follows the number).

Known results for molecules:
O=[N+]([O-])C(=Cc1cc2ccccc2[nH]1)C1=NCCN1Cc1ccc(Cl)nc1	90%
CCN=C(C(=Cc1ccoc1)[N+](=O)[O-])N(CC)Cc1ccc(Cl)nc1	100%
C[N+]1=C(C(=Cc2ccc(Cl)s2)[N+](=O)[O-])N(Cc2ccc(Cl)nc2)CC1.[Cl-]	100%
CC(=C(C1=NCCN1C(C)c1ccc(Cl)nc1)[N+](=O)[O-])c1ccc(Br)o1 (racemic)	100%
CC(=C(C1=NCCN1C(C)c1ccc(Cl)nc1)[N+](=O)[O-])c1ccoc1 (racemic)	51%

Could I get Nilaparvata lugens Mortality (%) 500 ppm for every one of these entries?
1. N#CC(=Cc1cc(Br)c(Br)o1)C1=NCCN1Cc1ccc(Cl)nc1
2. CCN=C(C(=Cc1ccc(Cl)o1)[N+](=O)[O-])N(CC)Cc1ccc(Cl)nc1
3. O=[N+]([O-])C(=Cc1ccc(Br)o1)C1=NCCN1CC1CCOC1 (stereo not shown)
4. O=[N+]([O-])C(=Cc1cc(Cl)cs1)C1=NCCCN1Cc1ccc(Cl)nc1
5. C[N+]1=C(C(=Cc2ccc([N+](=O)[O-])s2)[N+](=O)[O-])N(Cc2cnc(Cl)s2)CC1.[Cl-]

Outgoing:
100%
100%
61%
87%
100%
